Provenance of the data: paper PMC5587398

Run description: Pharmacokinetic study in rats after single oral dose
Type: in vivo, male Sprague-Dawley rats
Settings: male, Sprague-Dawley, rat, plasma, po, 30 mg/kg
Readout kind: Cmax

Consider NC1=NCCN1CC(=O)O . Its measured Cmax is 13300 ng/mL

* * *

Run description: Pharmacokinetic study in mice after single oral dose
Type: in vivo, male C57BL/6 mice
Settings: male, C57BL/6, mouse, plasma, po, 30 mg/kg
Readout kind: AUC(0-inf)
Answer as a quantity: numeral, then unit.

Just so you know, measured AUC(0-inf) for NC1=NCCN1CC(=O)O [cyclocreatine, 1-Carboxymethyl-2-iminoimidazolidine] came out at 84100 ng·h/mL
